target-under-test: rat brain N-type calcium channel subunits (α1B+α2δ+β1b cDNA subunits) (Rattus norvegicus, UniProt Q02294)
Construct: expressed in transfected cells
Sequence (Q02294 whole entry): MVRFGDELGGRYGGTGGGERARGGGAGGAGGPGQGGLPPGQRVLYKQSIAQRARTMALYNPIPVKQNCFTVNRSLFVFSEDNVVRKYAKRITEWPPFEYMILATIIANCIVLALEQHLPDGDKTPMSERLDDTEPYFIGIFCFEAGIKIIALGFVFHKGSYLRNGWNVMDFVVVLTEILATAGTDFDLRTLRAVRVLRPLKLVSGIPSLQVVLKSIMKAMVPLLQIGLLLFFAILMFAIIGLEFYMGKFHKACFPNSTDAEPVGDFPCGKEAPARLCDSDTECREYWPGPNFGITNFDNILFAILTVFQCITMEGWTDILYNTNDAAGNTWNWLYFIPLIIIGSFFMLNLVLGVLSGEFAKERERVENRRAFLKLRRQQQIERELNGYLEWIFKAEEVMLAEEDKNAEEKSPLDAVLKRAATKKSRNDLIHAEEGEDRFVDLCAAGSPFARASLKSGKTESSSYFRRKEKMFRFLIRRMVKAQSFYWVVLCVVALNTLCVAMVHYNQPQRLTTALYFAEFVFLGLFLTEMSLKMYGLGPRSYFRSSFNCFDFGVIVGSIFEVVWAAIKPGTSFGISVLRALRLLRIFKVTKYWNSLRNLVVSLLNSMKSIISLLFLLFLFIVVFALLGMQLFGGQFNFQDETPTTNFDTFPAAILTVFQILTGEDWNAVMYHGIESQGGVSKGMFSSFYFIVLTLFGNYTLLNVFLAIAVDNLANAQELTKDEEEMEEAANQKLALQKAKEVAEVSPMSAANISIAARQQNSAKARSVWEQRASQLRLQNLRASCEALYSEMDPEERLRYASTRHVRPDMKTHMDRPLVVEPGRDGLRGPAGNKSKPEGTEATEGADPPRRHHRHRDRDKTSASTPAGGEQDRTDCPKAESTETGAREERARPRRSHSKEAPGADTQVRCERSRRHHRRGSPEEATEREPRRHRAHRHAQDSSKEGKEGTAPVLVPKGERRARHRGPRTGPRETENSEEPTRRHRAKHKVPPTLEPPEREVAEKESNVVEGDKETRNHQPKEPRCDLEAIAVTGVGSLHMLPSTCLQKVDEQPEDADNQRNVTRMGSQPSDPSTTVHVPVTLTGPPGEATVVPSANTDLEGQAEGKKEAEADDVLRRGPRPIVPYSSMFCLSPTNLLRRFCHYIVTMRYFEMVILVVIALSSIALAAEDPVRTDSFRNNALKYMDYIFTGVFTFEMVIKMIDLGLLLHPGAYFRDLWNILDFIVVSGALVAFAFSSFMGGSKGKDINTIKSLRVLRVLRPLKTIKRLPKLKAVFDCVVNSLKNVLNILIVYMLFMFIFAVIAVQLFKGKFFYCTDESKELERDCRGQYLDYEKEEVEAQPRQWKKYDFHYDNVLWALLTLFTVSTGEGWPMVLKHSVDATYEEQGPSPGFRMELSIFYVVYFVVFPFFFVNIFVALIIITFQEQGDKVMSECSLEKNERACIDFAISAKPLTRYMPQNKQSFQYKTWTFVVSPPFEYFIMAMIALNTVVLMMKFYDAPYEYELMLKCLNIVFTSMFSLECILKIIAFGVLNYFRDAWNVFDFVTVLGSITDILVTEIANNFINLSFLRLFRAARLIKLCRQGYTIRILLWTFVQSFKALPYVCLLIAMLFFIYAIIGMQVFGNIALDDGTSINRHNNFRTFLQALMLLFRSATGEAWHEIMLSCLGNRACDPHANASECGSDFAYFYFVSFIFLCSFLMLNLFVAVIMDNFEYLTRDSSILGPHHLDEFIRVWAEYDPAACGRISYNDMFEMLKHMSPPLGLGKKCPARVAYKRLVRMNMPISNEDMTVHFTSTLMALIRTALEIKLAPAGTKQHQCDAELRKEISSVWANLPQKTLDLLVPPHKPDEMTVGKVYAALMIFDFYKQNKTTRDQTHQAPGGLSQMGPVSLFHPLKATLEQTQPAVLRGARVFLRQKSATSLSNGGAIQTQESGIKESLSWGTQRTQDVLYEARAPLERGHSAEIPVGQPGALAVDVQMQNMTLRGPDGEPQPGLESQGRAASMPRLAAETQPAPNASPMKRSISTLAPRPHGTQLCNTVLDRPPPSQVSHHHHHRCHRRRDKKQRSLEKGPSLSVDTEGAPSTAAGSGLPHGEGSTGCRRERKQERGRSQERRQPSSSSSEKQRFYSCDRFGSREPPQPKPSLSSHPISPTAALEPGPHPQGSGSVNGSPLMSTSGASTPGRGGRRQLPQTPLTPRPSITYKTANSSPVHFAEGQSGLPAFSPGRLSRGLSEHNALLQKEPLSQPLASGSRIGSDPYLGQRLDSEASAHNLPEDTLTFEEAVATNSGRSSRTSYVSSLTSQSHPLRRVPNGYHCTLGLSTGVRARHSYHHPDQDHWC
Sequence (P54290 25-1091 partner): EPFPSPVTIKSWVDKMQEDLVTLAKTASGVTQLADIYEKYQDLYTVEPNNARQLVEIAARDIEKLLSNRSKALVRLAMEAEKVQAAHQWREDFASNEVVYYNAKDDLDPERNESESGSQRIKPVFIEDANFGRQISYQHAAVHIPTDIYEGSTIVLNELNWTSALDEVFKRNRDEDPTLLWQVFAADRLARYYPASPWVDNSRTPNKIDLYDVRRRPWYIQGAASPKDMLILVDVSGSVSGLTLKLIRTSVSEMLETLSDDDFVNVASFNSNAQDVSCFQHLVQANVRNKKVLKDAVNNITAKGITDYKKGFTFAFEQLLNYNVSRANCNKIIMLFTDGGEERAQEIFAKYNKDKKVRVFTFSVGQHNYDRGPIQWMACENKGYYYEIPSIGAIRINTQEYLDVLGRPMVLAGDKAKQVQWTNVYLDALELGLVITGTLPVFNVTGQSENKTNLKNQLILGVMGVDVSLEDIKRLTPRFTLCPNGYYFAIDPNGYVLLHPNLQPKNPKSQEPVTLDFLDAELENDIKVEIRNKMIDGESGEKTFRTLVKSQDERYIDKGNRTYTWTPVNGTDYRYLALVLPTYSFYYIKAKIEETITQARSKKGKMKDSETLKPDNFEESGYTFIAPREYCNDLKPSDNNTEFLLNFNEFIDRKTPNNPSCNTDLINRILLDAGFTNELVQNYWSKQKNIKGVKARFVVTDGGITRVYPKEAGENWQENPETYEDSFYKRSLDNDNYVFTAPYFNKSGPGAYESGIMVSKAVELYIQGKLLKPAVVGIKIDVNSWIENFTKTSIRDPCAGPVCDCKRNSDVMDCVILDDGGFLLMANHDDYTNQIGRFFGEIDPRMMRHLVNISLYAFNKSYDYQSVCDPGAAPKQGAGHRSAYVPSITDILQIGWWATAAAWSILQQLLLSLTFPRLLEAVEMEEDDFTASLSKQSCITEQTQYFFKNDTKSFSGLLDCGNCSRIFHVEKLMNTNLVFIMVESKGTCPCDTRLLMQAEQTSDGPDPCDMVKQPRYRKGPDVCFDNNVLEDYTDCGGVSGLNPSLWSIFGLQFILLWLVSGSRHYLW
Sequence (P54283 whole entry partner): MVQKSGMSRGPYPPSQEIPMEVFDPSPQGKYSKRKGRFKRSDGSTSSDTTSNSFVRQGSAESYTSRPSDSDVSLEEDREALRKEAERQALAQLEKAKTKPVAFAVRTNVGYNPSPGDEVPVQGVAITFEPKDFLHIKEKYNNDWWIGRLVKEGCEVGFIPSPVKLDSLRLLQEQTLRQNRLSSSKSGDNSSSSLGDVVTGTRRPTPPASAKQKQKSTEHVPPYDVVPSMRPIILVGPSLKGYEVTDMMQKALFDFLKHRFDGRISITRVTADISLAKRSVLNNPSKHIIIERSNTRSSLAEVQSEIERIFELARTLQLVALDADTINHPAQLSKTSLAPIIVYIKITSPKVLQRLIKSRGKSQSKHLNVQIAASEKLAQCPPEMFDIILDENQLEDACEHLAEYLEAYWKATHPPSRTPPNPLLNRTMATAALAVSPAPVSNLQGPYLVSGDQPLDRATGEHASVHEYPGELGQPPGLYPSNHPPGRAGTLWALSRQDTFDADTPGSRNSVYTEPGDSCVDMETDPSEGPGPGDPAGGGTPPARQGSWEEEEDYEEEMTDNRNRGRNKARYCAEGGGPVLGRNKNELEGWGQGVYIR
assay-procedure: N-type calcium channel block, whole cell patch clamp in HEK 293 cells
Type: cell-based
condition-context: pulse frequency 0.2 Hz (frequency dependent block), holding potential −80 mV to +10 mV, read-out: IC50 @ 0.2 Hz
measurement-label: log10 of IC50 (log10 of the value in nM)
On a log10 scale: recorded IC50, unit nM.

Looking up O=C(NC(c1ccccc1)c1ccccc1)N1CCN(C(c2ccccc2)c2ccccc2)CC1 [Compound 1] , I see its log10 of IC50 listed as 2.18

Recorded result, CN1CCCC(C(c2ccccc2)N2CCN(C(=O)NC(c3ccccc3)c3ccccc3)CC2)C1 (stereo not shown) [Compound 22] , log10 of IC50: 3.33

Looking up O=C(NC(c1ccccc1)c1ccccc1)N1CCN(C(c2ccccc2)c2cccc(Cl)c2Cl)CC1 (stereo not shown) [Compound 7] , I found its log10 of IC50 recorded as 2.30

Briefly, log10 of IC50 measured for O=C(NC(c1ccccc1)c1ccccc1)N1CCN(C(c2ccccc2)c2ccc(Cl)cc2)CC1 (stereo not shown) [Compound 4] : 2.45

Entry Cc1ccc(C(c2ccccc2)N2CCN(C(=O)NC(c3ccccc3)c3ccccc3)CC2)c(C)c1 (stereo not shown) [Compound 3] , log10 of IC50 reported as 3.43

compound CN1CCC(CN2CCN(C(=O)NC(c3ccccc3)c3ccccc3)CC2)CC1 [Compound 10] , log10 of IC50 observed: 2.41

Record CN(C(=O)N1CCN(C(c2ccccc2)c2ccccc2)CC1)C(c1ccccc1)c1ccccc1 [Compound 39] , field log10 of IC50: 2.49

The compound listed as CN(C)CCCN1CCN(C(=O)NC(c2ccccc2)c2ccccc2)CC1 [Compound 11] has a reported log10 of IC50 of 3.00

For CN1CCC(C(c2ccccc2Cl)N2CCN(C(=O)NC(c3ccccc3)c3ccccc3)CC2)CC1 (stereo not shown) [Compound 37] the compound record lists log10 of IC50 as 2.96

// sample CN1CCC(C(c2ccc(Cl)cc2)N2CCN(C(=O)NC(c3ccccc3)c3ccccc3)CC2)CC1 (stereo not shown) [Compound 24] , its log10 of IC50 was 3.39

====

target-under-test: rat brain N-type calcium channel subunits (α1B+α2δ+β1b cDNA subunits) (Rattus norvegicus, UniProt Q02294)
Construct: expressed in transfected cells
assay-procedure: N-type calcium channel block, whole cell patch clamp in HEK 293 cells
Assay type: cell-based
condition-context: low frequency stimulation 0.067 Hz (tonic block), holding potential −80 mV to +10 mV, read-out: IC50 @ 0.067 Hz
Field: IC50. Provide a value for each of the compounds that follow.
Numbers only; they are read as µM.

IC50 measured on CN1CCCC(C(c2ccccc2)N2CCN(C(=O)NC(c3ccccc3)c3ccccc3)CC2)C1 (stereo not shown) = 6.3

The compound identified as CN1CCC(CN2CCN(C(=O)NC(c3ccccc3)c3ccccc3)CC2)CC1 registered its IC50 at 0.26

Measured IC50 of CN1CCC(C(c2ccc(Cl)cc2)N2CCN(C(=O)NC(c3ccccc3)c3ccccc3)CC2)CC1 (stereo not shown) : 4.31

====

target-under-test: rat brain N-type calcium channel subunits (α1B+α2δ+β1b cDNA subunits) (Rattus norvegicus, UniProt Q02294)
Construct: expressed in transfected cells
assay-procedure: N-type calcium channel block, whole cell patch clamp in HEK 293 cells
Format: cell-based
condition-context: low frequency stimulation 0.067 Hz (tonic block), holding potential −80 mV to +10 mV, read-out: IC50 @ 0.067 Hz
pIC50: −log10 of the molar value.
If the reported pIC50 equals or exceeds 6, assign 1. If not, assign 0.

In: Textbook exercise: given the entry CN(C(=O)N1CCN(CCN2CCCC2)CC1)C(c1ccccc1)c1ccccc1 [Compound 32] , state whether its pIC50 is greater than or equal to 6.
Out: 0

In: Determine whether measured pIC50 meets or exceeds 6 for O=C(NC(c1ccccc1)c1ccccc1)N1CCN(C(c2ccccc2)c2ccccc2Cl)CC1 (stereo not shown) [Compound 6]
Out: 1

In: Does the reported pIC50 for O=C(NC(c1ccccc1)c1ccccc1)N1CCN(C(c2ccccc2)c2ccc(Cl)cc2)CC1 (stereo not shown) [Compound 4] fall at or above the 6 mark?
Out: 1

In: Decide: is the reported value of pIC50 for Cc1ccc(C(c2ccccc2)N2CCN(C(=O)NC(c3ccccc3)c3ccccc3)CC2)c(C)c1 (stereo not shown) [Compound 3] equal to or greater than 6?
Out: 0

In: Reported pIC50 at or above 6? O=C(NC(c1ccccc1)c1ccccc1)N1CCN(C(c2ccccc2)c2cccc(Cl)c2Cl)CC1 (stereo not shown) [Compound 7]
Out: 1

====

Tested on: rat formalin model
assay-procedure: Formalin-induced pain model (paw flinches)
Type: in vivo
condition-context: 30 mg/kg IP, 10 min before formalin, ±SEM, saline control=100%
Could you please report measured Phase IIB (% MPE) for the items listed next?
Reply with just the number (in % MPE).

Entry O=C(NC(c1ccccc1)c1ccccc1)N1CCN(C(c2ccccc2)c2ccccc2)CC1 [Compound 1] — recorded Phase IIB (% MPE) = 99

Phase IIB (% MPE) reading for O=C(NC(c1ccccc1)c1ccccc1)N1CCN(C(c2ccccc2)c2ccccc2Cl)CC1 (stereo not drawn) [Compound 6] : 99

Form field Phase IIB (% MPE), entry CN(C)CCCN1CCN(C(=O)NC(c2ccccc2)c2ccccc2)CC1 [Compound 11] : 94

For this compound ( O=C(NC(c1ccccc1)c1ccccc1)N1CCN(C(c2ccccc2)c2cccc(Cl)c2)CC1 (stereo not drawn) [Compound 5] ), measured Phase IIB (% MPE) is 105

Consider O=C(NC(c1ccccc1)c1ccccc1)N1CCN(C(c2ccccc2)c2cccc(Cl)c2Cl)CC1 (stereo not drawn) [Compound 7] . Its measured Phase IIB (% MPE) is 85

The recorded Phase IIB (% MPE) for entry O=C(NC(c1ccccc1)c1ccccc1)N1CCN(C(c2ccccc2)c2ccc(Cl)cc2)CC1 (stereo not drawn) [Compound 4] equals 88

====

target-under-test: rat brain N-type calcium channel subunits (α1B+α2δ+β1b cDNA subunits) (Rattus norvegicus, UniProt Q02294)
Construct: expressed in transfected cells
assay-procedure: N-type calcium channel block, whole cell patch clamp in HEK 293 cells
Type: cell-based
condition-context: low frequency stimulation 0.067 Hz (tonic block), holding potential −80 mV to +10 mV, read-out: IC50 @ 0.067 Hz
Flag rule - IC50 less than 2000 nM flags criterion met; the remaining entries get criterion not met.

In: A record lists CN(C(=O)N1CCN(C(c2ccccc2)c2ccccc2)CC1)C(c1ccccc1)c1ccccc1 [Compound 39] . Is its IC50 below 2000 nM?
Out: criterion met

In: Dear colleague, could you confirm whether IC50 of CN1CCCC(CN2CCN(C(=O)NC(c3ccccc3)c3ccccc3)CC2)C1 (centres unmarked) [Compound 12] falls below 2000 nM? Thanks.
Out: criterion met

In: Is IC50 strictly under 2000 nM for the entry O=C(NC(c1ccccc1)c1ccccc1)N1CCN(C(c2ccccc2)c2ccccc2)CC1 [Compound 1] ?
Out: criterion met

In: Is the reported IC50 for CN(C)CCCN1CCN(C(=O)NC(c2ccccc2)c2ccccc2)CC1 [Compound 11] strictly below 2000 nM?
Out: criterion not met

In: Criterion: IC50 strictly below 2000 nM. Is it met by O=C(NC(c1ccccc1)c1ccccc1)N1CCN(C(c2ccccc2)c2cccc(Cl)c2)CC1 (centres unmarked) [Compound 5] ?
Out: criterion met

In: Item CN1CCC(C(c2cccc(Cl)c2)N2CCN(C(=O)NC(c3ccccc3)c3ccccc3)CC2)CC1 (centres unmarked) [Compound 38] : IC50 beneath 2000 nM, strictly?
Out: criterion not met

In: Report whether reported IC50 is lower than 2000 nM (strictly) for O=C(NC(c1ccccc1)c1ccccc1)N1CCN(C(c2ccccc2)C2CCNCC2)CC1 (centres unmarked) [Compound 35]
Out: criterion not met

In: Please state whether IC50 is below 2000 nM for CN1CCC(C(c2ccccc2Cl)N2CCN(C(=O)NC(c3ccccc3)c3ccccc3)CC2)CC1 (centres unmarked) [Compound 37]
Out: criterion met
